Provide the recorded furin cleavage Z-score for the entries that follow.
biological target: furin, P09958; test: furin cleavage Z-score vs untreated control; higher = more cleavage, active = 3.5 or more, inactive = 1 or less, 8 variable residues between constant flanks; details: 30 min;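 note: purified furin at 1:10 enzyme:substrate in 50 mM HEPES pH 7.5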
Sequence (P09958 whole entry): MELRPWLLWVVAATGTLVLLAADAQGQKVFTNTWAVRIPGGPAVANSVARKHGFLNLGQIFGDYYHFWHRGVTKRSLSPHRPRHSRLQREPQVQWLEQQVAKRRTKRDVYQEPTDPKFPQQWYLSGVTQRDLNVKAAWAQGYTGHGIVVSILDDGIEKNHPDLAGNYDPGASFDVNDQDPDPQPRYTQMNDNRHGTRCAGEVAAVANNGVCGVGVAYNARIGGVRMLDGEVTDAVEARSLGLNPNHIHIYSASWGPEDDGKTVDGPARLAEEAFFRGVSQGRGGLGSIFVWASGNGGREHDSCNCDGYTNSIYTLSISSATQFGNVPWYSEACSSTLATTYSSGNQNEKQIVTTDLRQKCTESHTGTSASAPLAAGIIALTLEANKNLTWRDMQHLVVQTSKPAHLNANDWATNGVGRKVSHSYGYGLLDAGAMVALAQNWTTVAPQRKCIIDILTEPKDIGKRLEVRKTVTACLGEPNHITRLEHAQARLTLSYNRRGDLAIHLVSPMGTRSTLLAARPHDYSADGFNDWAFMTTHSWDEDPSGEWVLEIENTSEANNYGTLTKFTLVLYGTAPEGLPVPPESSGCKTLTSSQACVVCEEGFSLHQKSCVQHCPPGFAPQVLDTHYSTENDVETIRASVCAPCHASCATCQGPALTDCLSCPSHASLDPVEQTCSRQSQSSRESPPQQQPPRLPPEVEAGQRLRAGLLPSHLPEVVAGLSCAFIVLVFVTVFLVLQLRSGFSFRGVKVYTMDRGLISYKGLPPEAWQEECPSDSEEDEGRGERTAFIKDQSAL
The other results are listed elsewhere or left out. No count for the full screen is at hand.
Output spec: single numeric token, no unit.

Specify furin cleavage Z-score for CAVTPIDTTIAGNASASA [HC1436] and stop.
-0.263

Specify furin cleavage Z-score for CARKPRPLDPAGNASASA [FS-2563] and stop.
0.941

Specify furin cleavage Z-score for CAQPEYDLELAGNASASA [HC1548] and stop.
0.874

Specify furin cleavage Z-score for CADEVDGVDEAGNASASA [CS2] and stop.
-0.54
